molecular target: T1, HCV ORFs (Gal4-DB fusions) (Hepatitis C virus genotype 1b, UniProt Q9WMX2); assay type: binding, HCV genotype 1b, isolate con1; settings: HCV protein NS3 as bait; human protein as prey;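 also: yeast two-hybrid screens using HCV genotype 1b proteins fused to Gal4-DB as baits against prey cDNA libraries from human spleen and foetal brain, IMAP1 via transformation and IMAP2 via mating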
T1 construct: expressed in transfected cells; host or cells: Saccharomyces cerevisiae MAV203 (IMAP1) / AH109 (IMAP2)
T1 sequence (Q9WMX2 1027-1657): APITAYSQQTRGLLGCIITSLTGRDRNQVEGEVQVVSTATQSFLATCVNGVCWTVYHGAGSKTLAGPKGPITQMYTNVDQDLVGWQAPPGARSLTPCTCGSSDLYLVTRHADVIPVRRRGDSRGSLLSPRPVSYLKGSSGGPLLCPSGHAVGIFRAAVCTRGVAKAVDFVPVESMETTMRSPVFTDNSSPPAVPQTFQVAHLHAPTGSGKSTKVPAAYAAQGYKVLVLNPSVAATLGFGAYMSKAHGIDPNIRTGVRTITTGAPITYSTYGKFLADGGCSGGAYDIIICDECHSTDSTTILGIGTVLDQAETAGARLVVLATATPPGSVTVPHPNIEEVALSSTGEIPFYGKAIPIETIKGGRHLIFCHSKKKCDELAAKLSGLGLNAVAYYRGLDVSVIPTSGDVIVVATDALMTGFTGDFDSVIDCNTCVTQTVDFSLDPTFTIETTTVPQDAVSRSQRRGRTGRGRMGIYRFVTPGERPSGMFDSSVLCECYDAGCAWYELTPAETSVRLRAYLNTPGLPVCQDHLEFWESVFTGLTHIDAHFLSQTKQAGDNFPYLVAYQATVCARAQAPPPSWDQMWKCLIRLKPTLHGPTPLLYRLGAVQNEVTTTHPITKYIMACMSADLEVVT
quantity_kind: IMAP Y2H IMAP1 (number of IST)

Reference set (2 entries):
| molecule | IMAP Y2H IMAP1 (number of IST) |
| --- | --- |
| PCYT2 (protein, UniProt Q99447 1-389, looked up) Ethanolamine-phosphate …: MIRNGRGAAGGAEQPGPGGRRAVRVWCDGCYDMVHYGHSNQLRQARAMGDYLIVGVHTDEEIAKHKGPPVFTQEERYKMVQAIKWVDEVVPAAPYVTTLETLDKYNCDFCVHGNDITLTVDGRDTYEEVKQAGRYRECKRTQGVSTTDLVGRMLLVTKAHHSSQEMSSEYREYADSFGKCPGGRNPWTGVSQFLQTSQKIIQFASGKEPQPGETVIYVAGAFDLFHIGHVDFLEKVHRLAERPYIIAGLHFDQEVNHYKGKNYPIMNLHERTLSVLACRYVSEVVIGAPYAVTAELLSHFKVDLVCHGKTEIIPDRDGSDPYQEPKRRGIFRQIDSGSNLTTDLIVQRIITNRLEYEARNQKKEAKELAFLEAARQQAAQPLGERDGDF | 1 |
| THAP1 (protein, UniProt Q9NVV9 1-213, looked up) THAP domain-containing …: MVQSCSAYGCKNRYDKDKPVSFHKFPLTRPSLCKEWEAAVRRKNFKPTKYSSICSEHFTPDCFKRECNNKLLKENAVPTIFLCTEPHDKKEDLLEPQEQLPPPPLPPPVSQVDAAIGLLMPPLQTPVNLSVFCDHNYTVEDTMHQRKRIHQLEQQVEKLRKKLKTAQQRCRRQERQLEKLKEVVHFQKEKDDVSERGYVILPNDYFEIVEVPA | 1 |

Then there is this molecule:
Requested read-out: IMAP Y2H IMAP1 (number of IST). Entry: RBM4 (protein, UniProt Q9BWF3 1-364, looked up) RNA-binding protein 4: MVKLFIGNLPREATEQEIRSLFEQYGKVLECDIIKNYGFVHIEDKTAAEDAIRNLHHYKLHGVNINVEASKNKSKTSTKLHVGNISPTCTNKELRAKFEEYGPVIECDIVKDYAFVHMERAEDAVEAIRGLDNTEFQGKRMHVQLSTSRLRTAPGMGDQSGCYRCGKEGHWSKECPIDRSGRVADLTEQYNEQYGAVRTPYTMSYGDSLYYNNAYGALDAYYKRCRAARSYEAVAAAAASVYNYAEQTLSQLPQVQNTAMASHLTSTSLDPYDRHLLPTSGAAATAAAAAAAAAAVTAASTSYYGRDRSPLRRATAPVPTVGEGYGYGHESELSQASAAARNSLYDMARYEREQYADRARYSAF
1
